B1: CDC34 (parent)
chain: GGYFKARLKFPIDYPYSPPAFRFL

# Variants of: B1
# Assay Comment: protein stability index of a GFP-peptide fusion (GPS, HEK-293T) (PSI 1-6); higher = more stable;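 note: lentivirally expressed fusions sorted by FACS into six bins by GFP to DsRed ratio, PSI derived from sequencing read proportions per bin multiplied by bin number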
# Test Context: c terminus: a fixed tail appended
Give 1 (yes) when the value for protein stability index is at least 3. Give 0 (no) when it is less.

Answered cases to consult:
Mutation String	Label
D13W	0 (no)
L24R	1 (yes)
K9P	0 (no)
I12E	0 (no)
Y16A	0 (no)
A6V	0 (no)
P18N	0 (no)
Y3R	1 (yes)
K9R	1 (yes)
A6S	0 (no)

*Q* Decide: is the reported value of protein stability index for P18S equal to or greater than 3?
*A* 1 (yes)

*Q* Also L8K ?
*A* 0 (no)

*Q* Also P15F ?
*A* 1 (yes)

*Q* Also K9E ?
*A* 1 (yes)

*Q* Also L8H ?
*A* 0 (no)

*Q* Also Y3E ?
*A* 0 (no)

*Q* Also K5C ?
*A* 0 (no)

*Q* Also Y16F ?
*A* 0 (no)

*Q* Also L8I ?
*A* 1 (yes)

*Q* Also F21E ?
*A* 0 (no)

*Q* Also R7Q ?
*A* 0 (no)

*Q* Also A6M ?
*A* 1 (yes)

*Q* Also F4T ?
*A* 0 (no)

*Q* Also P11K ?
*A* 0 (no)

*Q* Also P19Q ?
*A* 0 (no)

*Q* Also F21D ?
*A* 0 (no)

*Q* Also A20L ?
*A* 0 (no)

*Q* Also K5V ?
*A* 1 (yes)

*Q* Also P11Y ?
*A* 1 (yes)

*Q* Also A6P ?
*A* 0 (no)

*Q* Also F23T ?
*A* 0 (no)

*Q* Also Y14R ?
*A* 0 (no)

*Q* Also L8F ?
*A* 1 (yes)
